Recorded activity at 2 µg/mL values for a group of molecules are listed next.
- Test system: P. falciparum 3D7 parasites
- RUN DESCRIPTION: P. falciparum growth inhibition assay, 2-cycle (120 h treatment), delayed-death screen and dose-response
- Assay type: cell-based, Plasmodium falciparum
- RUN PARAMETERS: Plasmodium falciparum, 3D7; P. falciparum, 120 h, screen at 2 μg/mL, replicate 1; read-out: Pf_120h_%Growth_Rep1

- MOLECULE: "O=C(O)CCC(=O)OC[C@@H](NC(=O)C(Cl)Cl)[C@H](O)c1ccc([N+](=O)[O-])cc1 [Chloramphenicol succinate]"
  activity at 2 µg/mL (%): 150
- MOLECULE: "C=C[C@]1(C)C[C@@H](OC(=O)CSC(C)(C)CNC(=O)[C@H](N)C(C)C)[C@]2(C)[C@H](C)CC[C@]3(CCC(=O)[C@H]32)[C@@H](C)[C@@H]1O [Valnemulin, reference compound]"
  activity at 2 µg/mL (%): 15
- MOLECULE: "O=C(O)[C@H]1/C(=C/CO)O[C@@H]2CC(=O)N21 [Clavulanate potassium]"
  activity at 2 µg/mL (%): 88.4

---

- Tested on: P. falciparum 3D7 parasites
- RUN DESCRIPTION: P. falciparum growth inhibition assay, 2-cycle (120 h treatment), delayed-death screen and dose-response
- Assay type: cell-based, Plasmodium falciparum
- RUN PARAMETERS: P. falciparum 3D7, 120 h, library screen at 2 μg/mL, % growth, replicate 1
READOUT TYPE: Pf_120h_%Growth_Rep1 (%)

- COMPOUND: "CCCCCC(O)C1C(=O)OC(C)C(O)C=CC=CC=CC=CC=C(C)C(O)C(O)C(O)CC(O)CC(O)CC(O)CC(O)CC1O (centres unmarked)"
  UNITS OF MEASURE: "%"
  QUANTITATIVE RESULT: 95.83
- COMPOUND: "COc1cc2c(oc(=O)c3cc(C)cc(OC)c32)c2c([C@H]3O[C@@H]([C@@H](C)O)[C@H](O)[C@H]3O)ccc(O)c12"
  UNITS OF MEASURE: "%"
  QUANTITATIVE RESULT: 90.16
- COMPOUND: "COC1=CC(=O)C[C@@H](C)[C@]12Oc1c(Cl)c(OC)cc(OC)c1C2=O"
  UNITS OF MEASURE: "%"
  QUANTITATIVE RESULT: 92.82
- COMPOUND: "COc1ccc(C2CC(=O)c3c(O)cc(OC4OC(COC5OC(C)C(O)C(O)C5O)C(O)C(O)C4O)cc3O2)cc1O (centres unmarked)"
  UNITS OF MEASURE: "%"
  QUANTITATIVE RESULT: 111.90
- COMPOUND: "O=C1C=CC(=O)c2c(O)cccc21"
  UNITS OF MEASURE: "%"
  QUANTITATIVE RESULT: 84.54
- COMPOUND: "COC1=C(OC)C(=O)[C@@H](C)[C@H](C)C1=O"
  UNITS OF MEASURE: "%"
  QUANTITATIVE RESULT: 27.26
- COMPOUND: "COc1cc(C)c2c(OC)cc(=O)oc2c1-c1c(OC)cc(C)c2c(OC)cc(=O)oc12"
  UNITS OF MEASURE: "%"
  QUANTITATIVE RESULT: 81.50
- COMPOUND: "CCCC1CC(C(=O)NC(C(C)O)C2OC(SC)C(O)C(O)C2O)N(C)C1 (centres unmarked)"
  UNITS OF MEASURE: "%"
  QUANTITATIVE RESULT: 9.59
